Data provenance: patent US20120283184A1

Target: T1, human vascular endothelial growth factor receptor-2 Fc chimera (KDR-Fc) (human, UniProt P35968 20-764)
T1 construct: range 1-764; also called human VEGFR-2; not shown: human IgG1 Fc
T1 sequence (P35968 20-764 limits assumed, change not shown, form in doubt): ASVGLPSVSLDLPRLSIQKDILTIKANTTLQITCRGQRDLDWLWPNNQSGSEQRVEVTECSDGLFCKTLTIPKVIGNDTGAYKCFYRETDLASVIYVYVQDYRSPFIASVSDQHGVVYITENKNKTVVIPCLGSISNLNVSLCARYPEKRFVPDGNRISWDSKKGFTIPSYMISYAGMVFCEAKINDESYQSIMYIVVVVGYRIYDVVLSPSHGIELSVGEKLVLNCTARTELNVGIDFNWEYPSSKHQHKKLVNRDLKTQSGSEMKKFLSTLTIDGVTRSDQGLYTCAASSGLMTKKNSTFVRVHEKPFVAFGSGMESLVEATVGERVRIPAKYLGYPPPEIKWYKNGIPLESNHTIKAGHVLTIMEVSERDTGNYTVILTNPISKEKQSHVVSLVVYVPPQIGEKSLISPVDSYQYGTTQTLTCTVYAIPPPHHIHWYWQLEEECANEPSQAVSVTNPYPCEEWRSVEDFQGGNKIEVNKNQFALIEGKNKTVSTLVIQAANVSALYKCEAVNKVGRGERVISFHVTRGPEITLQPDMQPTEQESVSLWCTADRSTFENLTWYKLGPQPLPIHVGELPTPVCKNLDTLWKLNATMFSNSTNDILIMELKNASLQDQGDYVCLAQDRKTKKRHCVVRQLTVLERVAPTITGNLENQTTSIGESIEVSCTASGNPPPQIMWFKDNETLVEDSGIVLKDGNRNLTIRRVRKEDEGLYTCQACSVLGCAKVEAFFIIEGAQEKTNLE
Test: radioactive equilibrium binding, 1 nM KDR-Fc, % of input
Protocol: To prepare ³⁵S-labeled binding proteins for analysis, mRNA was prepared as described above for RNA-protein fusion production but the linker ligation step was omitted. […] 50 μL of the reaction mixture and elution were dried onto a LumaPlate-96 (Packard) and the amount of ³⁵S on the plate was measured using a TopCount NXT instrument (Packard). […] Data was analyzed using the GraphPad Prizm software (GraphPad Software, Inc, San Diego, Calif.), fitted using a one site, non-linear binding equation.
Outcome measure: Binding to 1 nM KDR, % (%)
Answer with a number only, understood to be in %.

q: Quick one: give measured Binding to 1 nM KDR, % for 2′Del B3 PR4 (designed binder) EVVAATPTSLLISWRHPHFPTRYYRITYGETGGNSPVQEFTVPLQPPTATISGLKPGVDYTITVYAVTDAPNGRELMVPISINYRT
a: 17

q: Quick one: give measured Binding to 1 nM KDR, % for 2′Del H5 PR4 (designed binder) EVVAATPTSLLISWRHPHFPTRYYRITYGETGGNSPVQEFTVPLQPPTATISGLKPGVDYTITVYAVTLGKDVRELLTPISINYRT
a: 34

q: Quick one: give measured Binding to 1 nM KDR, % for 1′DelE2 PR4 (designed binder) EVVAATPTSLLISWRHPHFPTRYYRITYGETGGNSPVQEFTVPLQPPTATISGLKPGVDYTITVYAVTVGQNDHELLTPISINYRT
a: 16

q: Quick one: give measured Binding to 1 nM KDR, % for 2′Del G9 PR4 (designed binder) EVVAATPTSLLISWRHPHFPTRYYRITYGETGGNSPVQEFTVPLQPPTATISGLKPGVDYTITVYAVTVEQNGRELIIPISINYRT
a: 33

q: Quick one: give measured Binding to 1 nM KDR, % for 2′Del H12 PR4 (designed binder) EVVAATPTSLLISWRHPHFPTRYYRITYGETGGNSPVQEFTVPLQPPTATISGLKPGVDYTITVYAVTAGGNGHELLTPISINYRT
a: 24
